Reference for the values: ChEMBL document CHEMBL3232716

Each entry below carries its recorded pIC50.
# System: HeLa
# Protocol text: Cytotoxicity against human HeLa cells after 1 hr by MTS/PMS assay
# Type: cell-based
pIC50: −log10 of the molar value. Square brackets hold non-standard residues; d marks the D form. Peptide text beside a SMILES is read from it. hArg = N=C(N)NCCCC[C@H](N)C(=O)O; Nspe = C[C@H](NCC(=O)O)c1ccccc1; Nphe = O=C(O)CNCc1ccccc1

Compound: CC(=O)N[C@@H](CCCCNC(=N)N)C(=O)N(CCC(=O)N[C@@H](CCCCN)C(=O)N(CCC(=O)N[C@@H](CCCCNC(=N)N)C(=O)N(CCC(=O)N[C@@H](CCCCN)C(=O)N(CCC(=O)N[C@@H](CCCCNC(=N)N)C(=O)N(CCC(N)=O)Cc1ccccc1)Cc1ccccc1)Cc1ccccc1)Cc1ccccc1)Cc1ccccc1
pIC50: 3.29

Compound: CC(=O)N[C@@H](CCCCN)C(=O)N(CCC(=O)N[C@@H](CCCCNC(=N)N)C(=O)N(CCC(=O)N[C@@H](CCCCN)C(=O)N(CCC(=O)N[C@@H](CCCCNC(=N)N)C(=O)N(CCC(=O)N[C@@H](CCCCN)C(=O)N(CCC(=O)N[C@@H](CCCCNC(=N)N)C(=O)N(CCC(N)=O)Cc1ccccc1)Cc1ccccc1)Cc1ccccc1)Cc1ccccc1)Cc1ccccc1)Cc1ccccc1
pIC50: 3.64

Compound: CC(=O)N[C@@H](CCCCNC(=N)N)C(=O)N(CC(=O)N[C@@H](CCCCN)C(=O)N(CC(=O)N[C@@H](CCCCNC(=N)N)C(=O)N(CC(=O)N[C@@H](CCCCN)C(=O)N(CC(=O)N[C@@H](CCCCNC(=N)N)C(=O)N(CC(N)=O)[C@@H](C)c1ccccc1)[C@@H](C)c1ccccc1)[C@@H](C)c1ccccc1)[C@@H](C)c1ccccc1)[C@@H](C)c1ccccc1 (Ac-[hArg][Nspe]K[Nspe][hArg][Nspe]K[Nspe][hArg][Nspe]-NH2)
pIC50: 3.78

Compound: CC(=O)N[C@@H](CCCCN)C(=O)N(CC(=O)N[C@@H](CCCCNC(=N)N)C(=O)N(CC(=O)N[C@@H](CCCCN)C(=O)N(CC(=O)N[C@@H](CCCCNC(=N)N)C(=O)N(CC(=O)N[C@@H](CCCCN)C(=O)N(CC(=O)N[C@@H](CCCCNC(=N)N)C(=O)N(CC(=O)N[C@@H](CCCCN)C(=O)N(CC(N)=O)Cc1ccccc1)Cc1ccccc1)Cc1ccccc1)Cc1ccccc1)Cc1ccccc1)Cc1ccccc1)Cc1ccccc1 (Ac-K[Nphe][hArg][Nphe]K[Nphe][hArg][Nphe]K[Nphe][hArg][Nphe]K[Nphe]-NH2)
pIC50: 4.00

====

# Tested on: HeLa
# Protocol text: Cytotoxicity against human HeLa cells after 1 hr by MTS/PMS assay
# Type: cell-based
Square brackets hold non-standard residues; d marks the D form. Peptide text beside a SMILES is read from it. hArg = N=C(N)NCCCC[C@H](N)C(=O)O; Nspe = C[C@H](NCC(=O)O)c1ccccc1; Nphe = O=C(O)CNCc1ccccc1
Lab note: compare IC50 with 80 µM, writing Y if less and N if equal or more.

Compound: CC(=O)N[C@@H](CCCCN)C(=O)N(CCC(=O)N[C@@H](CCCCNC(=N)N)C(=O)N(CCC(=O)N[C@@H](CCCCN)C(=O)N(CCC(=O)N[C@@H](CCCCNC(=N)N)C(=O)N(CCC(=O)N[C@@H](CCCCN)C(=O)N(CCC(=O)N[C@@H](CCCCNC(=N)N)C(=O)N(CCC(=O)N[C@@H](CCCCN)C(=O)N(CCC(N)=O)Cc1ccccc1)Cc1ccccc1)Cc1ccccc1)Cc1ccccc1)Cc1ccccc1)Cc1ccccc1)Cc1ccccc1
Target entity: HeLa
Group label: Y

Compound: CC(=O)N[C@@H](CCCCNC(=N)N)C(=O)N(CC(=O)N[C@@H](CCCCN)C(=O)N(CC(=O)N[C@@H](CCCCNC(=N)N)C(=O)N(CC(=O)N[C@@H](CCCCN)C(=O)N(CC(=O)N[C@@H](CCCCNC(=N)N)C(=O)N(CC(N)=O)Cc1ccccc1)Cc1ccccc1)Cc1ccccc1)Cc1ccccc1)Cc1ccccc1 (Ac-[hArg][Nphe]K[Nphe][hArg][Nphe]K[Nphe][hArg][Nphe]-NH2)
Target entity: HeLa
Group label: N

Compound: CC(=O)N[C@@H](CCCCNC(=N)N)C(=O)N(CCC(=O)N[C@@H](CCCCN)C(=O)N(CCC(=O)N[C@@H](CCCCNC(=N)N)C(=O)N(CCC(=O)N[C@@H](CCCCN)C(=O)N(CCC(=O)N[C@@H](CCCCNC(=N)N)C(=O)N(CCC(N)=O)[C@@H](C)c1ccccc1)[C@@H](C)c1ccccc1)[C@@H](C)c1ccccc1)[C@@H](C)c1ccccc1)[C@@H](C)c1ccccc1
Target entity: HeLa
Group label: N

Compound: CC(=O)N[C@@H](CCCCN)C(=O)N(CCC(=O)N[C@@H](CCCCNC(=N)N)C(=O)N(CCC(=O)N[C@@H](CCCCN)C(=O)N(CCC(=O)N[C@@H](CCCCNC(=N)N)C(=O)N(CCC(=O)N[C@@H](CCCCN)C(=O)N(CCC(=O)N[C@@H](CCCCNC(=N)N)C(=O)N(CCC(=O)N[C@@H](CCCCN)C(=O)N(CCC(N)=O)[C@@H](C)c1ccccc1)[C@@H](C)c1ccccc1)[C@@H](C)c1ccccc1)[C@@H](C)c1ccccc1)[C@@H](C)c1ccccc1)[C@@H](C)c1ccccc1)[C@@H](C)c1ccccc1
Target entity: HeLa
Group label: Y

Compound: CC(=O)N[C@@H](CCCCN)C(=O)N(CC(=O)N[C@@H](CCCCNC(=N)N)C(=O)N(CC(=O)N[C@@H](CCCCN)C(=O)N(CC(=O)N[C@@H](CCCCNC(=N)N)C(=O)N(CC(=O)N[C@@H](CCCCN)C(=O)N(CC(=O)N[C@@H](CCCCNC(=N)N)C(=O)N(CC(N)=O)[C@@H](C)c1ccccc1)[C@@H](C)c1ccccc1)[C@@H](C)c1ccccc1)[C@@H](C)c1ccccc1)[C@@H](C)c1ccccc1)[C@@H](C)c1ccccc1 (Ac-K[Nspe][hArg][Nspe]K[Nspe][hArg][Nspe]K[Nspe][hArg][Nspe]-NH2)
Target entity: HeLa
Group label: Y
